Sourced from patent US11261186B2

Molecular target: hGPR120 (Homo sapiens, UniProt Q5NUL3)
Sequence (Q5NUL3 1-361): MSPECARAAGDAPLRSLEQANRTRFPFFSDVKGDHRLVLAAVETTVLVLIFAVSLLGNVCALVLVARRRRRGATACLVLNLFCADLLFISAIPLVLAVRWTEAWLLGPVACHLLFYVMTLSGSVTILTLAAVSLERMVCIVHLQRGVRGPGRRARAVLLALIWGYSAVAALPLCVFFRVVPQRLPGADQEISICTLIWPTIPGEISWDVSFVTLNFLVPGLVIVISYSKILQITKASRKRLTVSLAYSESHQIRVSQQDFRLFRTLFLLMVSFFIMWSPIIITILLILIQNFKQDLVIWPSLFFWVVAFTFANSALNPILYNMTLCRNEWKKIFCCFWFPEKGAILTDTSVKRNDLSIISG
Assay: Measurement of Activity of GPR120 Agonist (Cell-Based Assay), Calcium 5 dye fluorescence
Settings: CHO-K1 cells expressing Ga16 and hGPR120
Experimental: CHO-K1 cells expressing Ga16 and hGPR120 were dispensed into each well of a 96-well plate (3×10^4 cells/100 μl/well) and then incubated in 5% CO2, 37° C. incubator for 18 hours. […] Each well was treated with 50 μl of the agonist compounds using Plexstation II, and then fluorescence was measured at Ex 485 nm and Em 525 nm. Fluorescence increased by the serially diluted GPR120 agonists is calculated as a relative percent (%) value based on the fluorescence represented by the treatment of 1% DMSO only. […]
observable: EC50

> print(dat)
                                   molecule  observable  value.observed
1  O=C(O)CCCOc1c(F)cc(-c2cc(F)cc(OC3CCC3)c2)cc1F        EC50        < 200 nM

Qu. Using the record for CC(C)Sc1ncccc1-c1cc(F)c(N2CC(CC(=O)O)C2)c(F)c1 , report its EC50.
Ans. < 200 nM

Qu. Using the record for Cc1cc(OC2CCC2)nc(-c2cc(F)c(N3CCC(CC(=O)O)CC3)c(F)c2)n1 , report its EC50.
Ans. 200 to 2000 nM

Qu. Using the record for O=C(O)CC1CCN(c2c(F)cc(-c3cccnc3OC3CCOC3)cc2F)CC1 (stereo not shown) , report its EC50.
Ans. 200 to 2000 nM

###

Molecular target: hGPR120 (Homo sapiens, UniProt Q5NUL3)
Sequence (Q5NUL3 1-361): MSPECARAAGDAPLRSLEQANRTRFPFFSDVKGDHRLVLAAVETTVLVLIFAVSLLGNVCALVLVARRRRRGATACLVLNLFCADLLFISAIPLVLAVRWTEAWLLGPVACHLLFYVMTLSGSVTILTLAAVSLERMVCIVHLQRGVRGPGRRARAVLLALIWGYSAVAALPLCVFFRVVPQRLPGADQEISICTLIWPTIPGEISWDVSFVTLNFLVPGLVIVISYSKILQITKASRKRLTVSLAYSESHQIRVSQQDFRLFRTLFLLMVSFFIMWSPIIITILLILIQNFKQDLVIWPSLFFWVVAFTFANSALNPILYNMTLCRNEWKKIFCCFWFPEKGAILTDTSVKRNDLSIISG
Assay: Measurement of Activity of GPR120 Agonist (Cell-Based Assay), Calcium 5 dye fluorescence
Conditions: CHO-K1 cells expressing Ga16 and hGPR120
observable: EC50

> print(dat)
                                   molecule    value.observed
1  Oc1cc(CCNc2c(F)cc(-c3cccnc3OC3CCCC3)cc2F)on1    200 to 2000 nM
2  CNc1ccccc1-c1cc(F)c(N(C)CCCC(=O)O)c(F)c1    200 to 2000 nM
3     O=C(O)CCCCc1ccc(-c2cccnc2OC2CCC2)cc1F          < 200 nM
4  CCCSc1cccc(-c2cc(F)c(C(C)CCCC(=O)O)c(F)c2)n1 (stereo not shown)          < 200 nM
5  COc1ccc(-c2ccc3c(c2)CCC(CCC(=O)O)O3)c2c1OC(C)(C)C2 (stereo not shown)  2000 to 20000 nM
6  O=C(O)CC1CCN(c2c(F)cc(-c3nccc(OCC4CC4)n3)cc2F)CC1          < 200 nM

Qu. Query the reported EC50 for hGPR120 (Homo sapiens, UniProt Q5NUL3); item: Cc1ccc(Oc2ccnc(-c3cc(F)c(N4CCC(CC(=O)O)CC4)c(F)c3)n2)cc1
Ans. < 200 nM

Qu. Query the reported EC50 for hGPR120 (Homo sapiens, UniProt Q5NUL3); item: CN(CCCC(=O)O)c1c(F)cc(-c2occc2COCC2CC2)cc1F
Ans. 200 to 2000 nM

Qu. Query the reported EC50 for hGPR120 (Homo sapiens, UniProt Q5NUL3); item: CCCCOc1cccc(-c2cc(F)c(N3CCC(CC(=O)O)CC3)c(F)c2)n1
Ans. 200 to 2000 nM

Qu. Query the reported EC50 for hGPR120 (Homo sapiens, UniProt Q5NUL3); item: CCCCOc1csc(-c2cc(F)c(N3CCC(CC(=O)O)CC3)c(F)c2)n1
Ans. 200 to 2000 nM

Qu. Query the reported EC50 for hGPR120 (Homo sapiens, UniProt Q5NUL3); item: CC(C)Nc1cncc(-c2cc(F)c(N3CCC(CC(=O)O)C3)c(F)c2)n1 (stereo not shown)
Ans. 200 to 2000 nM

###

molecular target: hGPR120 (Homo sapiens); assay: Measurement of Activity of GPR120 Agonist (Cell-Based Assay), Calcium 5 dye fluorescence; conditions: CHO-K1 cells expressing Ga16 and hGPR120
Entries and their measured EC50 follow.

> print(dat)
                                   compound  observable  value.observed
1  O=C(O)CCCOc1c(F)cc(-c2nccc(OC3CCC3)n2)cc1F        EC50        < 200 nM
2  O=C(O)CCC1CCc2cc(-c3cccc(OC4CCCC4)n3)ccc2N1 (stereo not drawn)        EC50  200 to 2000 nM
3  Oc1cc(COc2c(F)cc(-c3cccc(OCC4CC4)n3)cc2F)on1        EC50        < 200 nM

Qu. Using the record for Cc1cc(OC(C)C)nc(-c2cc(F)c(N3CCC(CC(=O)O)C3)c(F)c2)n1 (stereo not drawn) , report its EC50.
Ans. 200 to 2000 nM

Qu. Using the record for CC(C)Sc1cccc(-c2cc(F)c(N3CCC(CC(=O)O)C3)c(F)c2)n1 (stereo not drawn) , report its EC50.
Ans. < 200 nM

Qu. Using the record for CC(C)CCc1cncc(-c2cc(F)c(N3CCC(CC(=O)O)CC3)c(F)c2)n1 , report its EC50.
Ans. 200 to 2000 nM

###

biological target: hGPR120 (Homo sapiens); assay: Measurement of Activity of GPR120 Agonist (Cell-Based Assay), Calcium 5 dye fluorescence; settings: CHO-K1 cells expressing Ga16 and hGPR120
observable: EC50

> print(dat)
                                   compound             test.system  observable  value.observed
1  COc1ccc(-c2cc(F)c(OCCCC(=O)O)c(F)c2)c2c1OC(C)(C)C2  hGPR120 (Homo sapiens)        EC50        < 0.2 µM
2  CC(C)Sc1ncccc1-c1cc(F)c(-n2cc(CCC(=O)O)cn2)c(F)c1  hGPR120 (Homo sapiens)        EC50      2 to 20 µM
3  O=C(O)CCCOc1c(F)cc(-c2cccc(SC3CCC3)c2)cc1F  hGPR120 (Homo sapiens)        EC50        < 0.2 µM
4  O=C(O)CCCCc1c(F)cc(-c2cccc(OC3CCC3)n2)cc1F  hGPR120 (Homo sapiens)        EC50        < 0.2 µM
5  CC(CCCC(=O)O)c1c(F)cc(-c2cccc(SC3CCCC3)n2)cc1F (centres unmarked)  hGPR120 (Homo sapiens)        EC50        < 0.2 µM
6  CC(CCCC(=O)O)c1c(F)cc(-c2cccnc2OC2CCOC2)cc1F (centres unmarked)  hGPR120 (Homo sapiens)        EC50        < 0.2 µM

Qu. Using the record for O=C(O)CC1CCN(c2c(F)cc(-c3nccc(OCC4CC4)n3)cc2F)C1 (centres unmarked) , report its EC50.
Ans. < 0.2 µM

Qu. Using the record for CN(CCCC(=O)O)c1c(F)cc(-c2cccnc2SC2CCCC2)cc1F , report its EC50.
Ans. < 0.2 µM

Qu. Using the record for O=C(O)CC1CCN(c2c(F)cc(-c3ccc(F)c(OC4CCC4)c3)cc2F)CC1 , report its EC50.
Ans. 0.2 to 2 µM

Qu. Using the record for Cc1cc2cc(Cl)cc(-c3cc(F)c(OCCCC(=O)O)c(F)c3)c2o1 , report its EC50.
Ans. < 0.2 µM

Qu. Using the record for C[C@H](CCCC(=O)O)c1c(F)cc(-c2cccnc2SC2CCC2)cc1F , report its EC50.
Ans. < 0.2 µM

Qu. Using the record for CCCSc1ncccc1-c1cc(F)c(N2CCC(CC(=O)O)CC2)c(F)c1 , report its EC50.
Ans. < 0.2 µM

Qu. Using the record for O=C(O)CCCOc1c(F)cc(-c2csc(OC3CCC3)n2)cc1F , report its EC50.
Ans. < 0.2 µM

Qu. Using the record for CCc1ccc(Oc2ccnc(-c3cc(F)c(N4CCC(CC(=O)O)CC4)c(F)c3)n2)cc1 , report its EC50.
Ans. 0.2 to 2 µM
